- target_entity: human LPA1 (Homo sapiens, UniProt Q92633)
- Sequence (Q92633 whole entry): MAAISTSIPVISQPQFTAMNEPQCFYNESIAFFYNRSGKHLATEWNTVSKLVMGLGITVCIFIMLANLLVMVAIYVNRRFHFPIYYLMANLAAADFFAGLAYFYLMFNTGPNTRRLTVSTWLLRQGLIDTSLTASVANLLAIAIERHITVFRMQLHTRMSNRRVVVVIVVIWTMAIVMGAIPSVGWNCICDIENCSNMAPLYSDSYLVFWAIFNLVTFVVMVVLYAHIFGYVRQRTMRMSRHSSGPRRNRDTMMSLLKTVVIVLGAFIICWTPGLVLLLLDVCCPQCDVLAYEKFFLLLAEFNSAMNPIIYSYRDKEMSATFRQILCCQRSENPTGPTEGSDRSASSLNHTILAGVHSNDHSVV
- protocol_notes: LPA1 functional antagonist assay (LPA-induced calcium flux)
- condition: CHO cells overexpressing human LPA1, 10 nM LPA, read-out: hLPA1 IC50
pIC50: −log10 of the molar value.
quantity: pIC50

Look over these answered cases.
- molecule: "CCCOc1ccnc(NCc2c(-c3ncc(O[C@H]4CCC[C@H](C(=O)O)C4)c(CC)n3)cnn2C)n1 [Example 23]"
  pIC50: 8.70
- molecule: "Cc1nc(-c2cnn(C)c2CNc2nccc(OCC(C)F)n2)ncc1O[C@H]1CCC[C@H](C(=O)O)C1 (stereo partly shown) [Example 33]"
  pIC50: 7.68

(A) Cc1cc(-c2ccccn2)nc(NCc2c(-c3ccc(O[C@H]4CCC[C@H](C(=O)O)C4)c(C)n3)cnn2C)n1 [Example 5]
(B) CCCc1ccnc(Nc2c(-c3ncc(O[C@H]4CCC[C@H](C(=O)O)C4)c(C)n3)cnn2C)n1 [Example 19]
Larger number for pIC50: A , or B ? // output: label of the selected item A
(A: 6.66, B: 5.85)

(P) Cc1nc(-c2cnn(C)c2CNc2nccc(C3CC3)n2)ncc1O[C@H]1CCC[C@H](C(=O)O)C1 [Example 12]
(Q) Cc1nc(-c2cnn(C)c2CNc2nccc(C(C)C)n2)ncc1O[C@H]1CCC[C@H](C(=O)O)C1 [Example 10]
(R) CCOc1ccnc(NCc2c(-c3ncc(O[C@H]4CCC[C@H](C(=O)O)C4)c(CC)n3)cnn2C)n1 [Example 21]
Form: Sort by [pIC50] Order [ ascending ] Answer format: the labels, in the requested order. P, Q, R

Recorded values, source patent US11312706B2.
